target: SGK3 (Homo sapiens); assay: IC50 determination, biochemical kinase assay; settings: not in the presence of VHL
Sequence (Q96BR1 whole entry): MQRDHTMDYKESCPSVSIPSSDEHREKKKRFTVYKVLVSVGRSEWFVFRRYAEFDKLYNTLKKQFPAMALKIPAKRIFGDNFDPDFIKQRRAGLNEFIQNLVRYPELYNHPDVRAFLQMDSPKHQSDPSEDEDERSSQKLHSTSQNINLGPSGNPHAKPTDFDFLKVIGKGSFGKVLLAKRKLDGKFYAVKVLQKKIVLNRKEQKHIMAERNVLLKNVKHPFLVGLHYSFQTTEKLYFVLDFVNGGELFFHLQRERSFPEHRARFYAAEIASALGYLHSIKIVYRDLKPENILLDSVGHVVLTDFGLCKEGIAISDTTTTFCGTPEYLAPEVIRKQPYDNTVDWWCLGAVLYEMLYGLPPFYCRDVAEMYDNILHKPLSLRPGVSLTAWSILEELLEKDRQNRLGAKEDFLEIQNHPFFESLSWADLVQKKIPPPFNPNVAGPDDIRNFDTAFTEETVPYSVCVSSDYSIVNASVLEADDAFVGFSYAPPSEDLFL
readout-type: IC50 (nM)
The response must be a number in nM with no trailing unit.

>>> value_observed("COc1ccc(Cl)c(S(=O)(=O)Nc2ccc(-c3nc(OC[C@H]4CN(CCOCCOCCOCC(=O)NCCNc5cccc6c5C(=O)N(C5CCC(=O)NC5=O)C6=O)CCO4)c4c(C)n[nH]c4n3)cc2)c1 (stereo partly drawn)")
540

Recall the recorded IC50 for `Cc1ccc(F)c(S(=O)(=O)Nc2ccc(-c3nc(OC[C@H]4CN(CCOCCOCCOCC(=O)N[C@H](C(=O)N5C[C@H](O)C[C@H]5C(=O)NCc5ccc(-c6scnc6C)cc5)C(C)(C)C)CCO4)c4cn[nH]c4n3)cc2)c1` with SGK3 (Homo sapiens) and state it.
440
